Data provenance is ChEMBL document CHEMBL2390920.

target: UniProt Q9HC97; experiment: Agonist activity at human GPR35 expressed in CHO cells assessed as induction of beta-arrestin recruitment after 90 mins by beta-galactosidase reporter gene assay; format: cell-based
MEASURE: EC50 (nM)

Examples with their reported EC50 follow.
[[record]]
item_smiles = "COc1ccc(C(=O)Nc2cccc3c(=O)cc(C(=O)O)oc23)cc1"
assayed_system = "UniProt Q9HC97"
assay_result = 346

[[record]]
item_smiles = "O=C(Nc1cc(Br)cc2c(=O)cc(C(=O)O)oc12)c1ccc2c(c1)OCO2"
assayed_system = "UniProt Q9HC97"
assay_result = 59.9

[[record]]
item_smiles = "O=C(O)c1cc(=O)c2cccc([N+](=O)[O-])c2o1"
assayed_system = "UniProt Q9HC97"
assay_result = 46300


P. CCOC(=O)c1cc(=O)c2cc(F)cc(NC(=O)c3ccc(OC)cc3)c2o1
Q. N#Cc1ccc(C(=O)Nc2cc(Br)cc3c(=O)cc(C(=O)O)oc23)cc1
I need your help: which of the pair P , Q has higher EC50? Bench note: the answer is the label of the chosen record.
Q

----------
target: G-protein coupled receptor 35 (Homo sapiens, UniProt Q9HC97); assay: Agonist activity at human GPR35 expressed in CHO cells assessed as induction of beta-arrestin recruitment after 90 mins by beta-galactosidase reporter gene assay; assay type: cell-based
Sequence (Q9HC97 whole entry): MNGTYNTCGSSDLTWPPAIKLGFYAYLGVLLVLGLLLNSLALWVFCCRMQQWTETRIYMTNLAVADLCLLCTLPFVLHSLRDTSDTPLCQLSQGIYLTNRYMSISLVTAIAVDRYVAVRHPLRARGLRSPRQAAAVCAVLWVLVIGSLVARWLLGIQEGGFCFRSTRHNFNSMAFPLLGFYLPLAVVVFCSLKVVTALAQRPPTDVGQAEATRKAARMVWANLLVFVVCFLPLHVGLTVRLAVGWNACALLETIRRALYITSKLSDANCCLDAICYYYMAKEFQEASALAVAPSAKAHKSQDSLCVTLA
pEC50: −log10 of the molar value.
MEASURE: pEC50

Some solved cases for reference:
[[record]]
compound = "O=C(O)c1cc(=O)c2cc(Br)cc(NC(=O)c3ccc(Cl)cc3Cl)c2o1"
assayed_system = "G-protein coupled receptor 35 (Homo sapiens, UniProt Q9HC97)"
assay_result = 7.79

[[record]]
compound = "O=C(Nc1cc(F)cc2c(=O)cc(C(=O)O)oc12)c1ccc(Cl)c(Cl)c1"
assayed_system = "G-protein coupled receptor 35 (Homo sapiens, UniProt Q9HC97)"
assay_result = 6.93

[[record]]
compound = "O=C(Nc1cccc2c(=O)cc(C(=O)O)oc12)c1ccc2ccccc2n1"
assayed_system = "G-protein coupled receptor 35 (Homo sapiens, UniProt Q9HC97)"
assay_result = 5.87


a. O=C(O)c1cc(=O)c2cccc(NC(=O)C3CCCCC3)c2o1
b. O=C(O)c1cc(=O)c2ccccc2[nH]1 [TRANSTORINE]
c. O=C(Nc1cccc2c(=O)cc(C(=O)O)oc12)c1ccc(Br)cc1
d. COc1ccc(C(=O)Nc2cc(Br)cc3c(=O)cc(C(=O)O)oc23)nc1
e. O=C(Nc1cccc2c(=O)cc(C(=O)O)oc12)c1ccc(C(F)(F)F)cc1
Sort the 5 compounds by pEC50; largest first, smallest last. Provide the labels, sequenced as the question asks.
d, c, a, e, b
(d: 6.84, c: 6.09, a: 5.38, e: 4.81, b: 3.66)

I. Cc1cccc(C(=O)Nc2cc(Cl)cc3c(=O)cc(C(=O)O)oc23)c1
II. Cc1cccc(C(=O)Nc2cccc3c(=O)cc(C(=O)O)oc23)c1
Returns the identifier with the smallest measured pEC50 among I and II . // return label of chosen record
II
(II: 5.26, I: 5.91)

----------
target: G-protein coupled receptor 35 (Homo sapiens, UniProt Q9HC97); assay: Agonist activity at human GPR35b expressed in CHO cells assessed as induction of beta-arrestin recruitment at 10 uM after 90 mins by beta-galactosidase reporter gene assay relative to zaprinast; type: cell-based
MEASURE: Emax (%)

[[record]]
item_smiles = "O=C(Nc1cccc2c(=O)cc(C(=O)O)oc12)c1ccc(Br)cc1"
assay_result = 113

[[record]]
item_smiles = "O=C(O)c1cc(=O)c2cc(F)cc(NC(=O)c3cccc(Cl)c3Cl)c2o1"
assay_result = 104

[[record]]
item_smiles = "COc1ccc(C(=O)Nc2cc(Cl)cc3c(=O)cc(C(=O)O)oc23)cc1"
assay_result = 125

[[record]]
item_smiles = "COc1ccc(C(=O)Nc2cccc3c(=O)cc(C(=O)O)oc23)cc1"
assay_result = 115

[[record]]
item_smiles = "COc1ccc(C(=O)Nc2cc(Br)cc3c(=O)cc(C(=O)O)oc23)c(Cl)c1"
assay_result = 129

[[record]]
item_smiles = "O=C(O)c1cc(=O)c2cc(Br)cc(NC(=O)c3ccc(Cl)cc3Cl)c2o1"
assay_result = 116

[[record]]
item_smiles = "O=C(Nc1cc(Br)cc2c(=O)cc(C(=O)O)oc12)c1ccc(Cl)c(Cl)c1"
assay_result = 109

[[record]]
item_smiles = "O=C(Nc1cc(F)cc2c(=O)cc(C(=O)O)oc12)c1ccc(Cl)c(Cl)c1"
assay_result = 136

[[record]]
item_smiles = "COc1ccc(C(=O)Nc2cc(Br)cc3c(=O)cc(C(=O)O)oc23)cc1OC"
assay_result = 101

[[record]]
item_smiles = "Cc1cccc(C(=O)Nc2cc(Br)cc3c(=O)cc(C(=O)O)oc23)c1"
assay_result = 111

[[record]]
item_smiles = "COc1ccc(C(=O)Nc2cc(Br)cc3c(=O)cc(C(=O)O)oc23)cc1"
assay_result = 136

[[record]]
item_smiles = "O=C(Nc1cc(Br)cc2c(=O)cc(C(=O)O)oc12)c1ccc(Cl)cc1"
assay_result = 130

[[record]]
item_smiles = "O=C(O)c1cc(=O)c2cc(F)cc(NC(=O)c3ccc(Cl)cc3Cl)c2o1"
assay_result = 110

[[record]]
item_smiles = "COc1ccc(C(=O)Nc2cc(F)cc3c(=O)cc(C(=O)O)oc23)cc1"
assay_result = 113

[[record]]
item_smiles = "O=C(Nc1cc(Br)cc2c(=O)cc(C(=O)O)oc12)c1ccc2c(c1)OCO2"
assay_result = 118


----------
target: G-protein coupled receptor 55 (Homo sapiens, UniProt Q9Y2T6); assay: Agonist activity at human GPR55 expressed in CHO cells assessed as induction of beta-arrestin recruitment at 10 uM after 90 mins by beta-galactosidase reporter gene assay relative to lysophosphotidylinositol; format: functional, cell-based
Sequence (Q9Y2T6 whole entry): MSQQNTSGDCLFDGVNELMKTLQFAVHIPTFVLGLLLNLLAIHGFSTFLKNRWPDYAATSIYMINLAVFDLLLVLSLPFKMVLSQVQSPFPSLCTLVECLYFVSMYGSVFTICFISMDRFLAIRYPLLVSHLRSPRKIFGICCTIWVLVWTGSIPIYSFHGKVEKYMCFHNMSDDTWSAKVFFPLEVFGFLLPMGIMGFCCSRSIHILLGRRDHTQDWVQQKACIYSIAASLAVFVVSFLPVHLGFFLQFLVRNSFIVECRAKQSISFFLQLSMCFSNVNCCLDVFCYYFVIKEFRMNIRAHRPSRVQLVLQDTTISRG
MEASURE: Activity (%)

[[record]]
item_smiles = "COc1ccc(C(=O)Nc2cc(Br)cc3c(=O)cc(C(=O)O)oc23)cc1"
assay_result = 0

[[record]]
item_smiles = "N#Cc1ccc(C(=O)Nc2cc(Br)cc3c(=O)cc(C(=O)O)oc23)cc1"
assay_result = 0

[[record]]
item_smiles = "O=C(O)c1cc(=O)c2cc(Br)cc(NC(=O)c3ccc(Cl)cc3Cl)c2o1"
assay_result = 10

[[record]]
item_smiles = "Cc1cccc(C(=O)Nc2cc(Br)cc3c(=O)cc(C(=O)O)oc23)c1"
assay_result = -8


A. Cc1cccc(C(=O)Nc2cc(Cl)cc3c(=O)cc(C(=O)O)oc23)c1
B. COc1ccccc1C(=O)Nc1cc(Br)cc2c(=O)cc(C(=O)O)oc12
C. CCOC(=O)c1cc(=O)c2cc(F)cc(NC(=O)c3ccc(OC)cc3)c2o1
D. O=C(O)c1cc(=O)c2cccc(NC(=O)C3CCCCC3)c2o1
E. O=C(Nc1cccc2c(=O)cc(C(=O)O)oc12)c1ccc(OCC2CC2)cc1
Place the items in sequence of falling Activity. Sort the labels as requested; that list is your answer.
D, B, A, C, E

1. CCC(=O)Nc1cccc2c(=O)cc(C(=O)O)oc12
2. COc1ccc(C(=O)Nc2cc(F)cc3c(=O)cc(C(=O)O)oc23)cc1
3. O=C(Nc1cccc2c(=O)cc(C(=O)O)oc12)c1ccccc1
4. COc1ccc(C(=O)Nc2cc(Cl)cc3c(=O)cc(C(=O)O)oc23)cc1
5. COc1ccc(C(=O)Nc2cc(Br)cc3c(=O)cc(C(=O)O)oc23)cc1OC
Order the records by Activity, with each subsequent value no larger than the one before. // respond by listing labels in the order requested
1, 2, 3, 4, 5
(1: 15%, 2: 7%, 3: 3%, 4: -2%, 5: -12%)

----------
biological target: G-protein coupled receptor 35 (Homo sapiens, UniProt Q9HC97); experiment: Agonist activity at human GPR35 expressed in CHO cells assessed as induction of beta-arrestin recruitment after 90 mins by beta-galactosidase reporter gene assay; type: cell-based
pEC50: −log10 of the molar value.
MEASURE: pEC50

A. CCC(=O)Nc1cccc2c(=O)cc(C(=O)O)oc12
B. CCOc1ccc(C(=O)Nc2cc(Br)cc3c(=O)cc(C(=O)O)oc23)cc1
C. O=C(Nc1cc(Cl)cc2c(=O)cc(C(=O)O)oc12)c1ccc([N+](=O)[O-])cc1
D. O=C(Nc1cc(Br)cc2c(=O)cc(C(=O)O)oc12)c1ccc(Cl)c(Cl)c1
E. O=C(Nc1cc(Br)cc2c(=O)cc(C(=O)O)oc12)c1ccc(Cl)cc1
Returns the items ordered by pEC50, from maximum to minimum. List labels; respect the requested ordering.
D, E, B, C, A

----------
biological target: G-protein coupled receptor 55 (Homo sapiens, UniProt Q9Y2T6); assay: Antagonist activity at human GPR55 expressed in CHO cells assessed as inhibition of lysophosphotidylinositol-induced beta-arrestin recruitment at 10 uM preincubated for 30 mins followed by lysophosphotidylinositol induction by beta-galactosidase reporter gene assay relative to control; type: functional, cell-based
MEASURE: inhibition (%)

[[record]]
item_smiles = "O=C(Nc1cccc2c(=O)cc(C(=O)O)oc12)c1ccc2ccccc2n1"
measure = "inhibition"
reading_unit = "%"
assay_result = 31

[[record]]
item_smiles = "CCOc1ccc(C(=O)Nc2cc(Br)cc3c(=O)cc(C(=O)O)oc23)cc1"
measure = "inhibition"
reading_unit = "%"
assay_result = 39


P. CCCOc1ccc(C(=O)Nc2cccc3c(=O)cc(C(=O)O)oc23)cc1
Q. COc1ccc(C(=O)Nc2cccc3c(=O)cc(C(=O)O)oc23)cc1
R. O=C(Nc1cc(F)cc2c(=O)cc(C(=O)O)oc12)c1ccc(Cl)c(Cl)c1
S. O=C(O)c1cc(=O)c2cccc([N+](=O)[O-])c2o1
Hi! Can you put these in order of inhibition, lowest number first? Your reply should list the labels following the order given in the request.
Q, P, S, R

1. O=C(O)c1cc(=O)c2cccc(NC(=O)C3CCCCC3)c2o1
2. O=C(Nc1cc(Br)cc2c(=O)cc(C(=O)O)oc12)c1ccc(Cl)c(Cl)c1
3. COC(=O)CC(=O)Nc1cccc2c(=O)cc(C(=O)O)oc12
Task field, ranking: reported inhibition, descending order. Reply with the item labels sorted in the order that was asked for.
2, 3, 1
(2: 47%, 3: 31%, 1: 16%)

I. COc1ccc(C(=O)Nc2cc(Cl)cc3c(=O)cc(C(=O)O)oc23)cc1
II. Cc1ccc(C(=O)Nc2cccc3c(=O)cc(C(=O)O)oc23)cc1
III. O=C(Nc1cccc2c(=O)cc(C(=O)O)oc12)c1ccc(OCC2CC2)cc1
Order these by inhibition, descending, and give the full ranking. Form entry: ranked labels (order as requested).
I, III, II
(I: 47%, III: 24%, II: 16%)
